Sourced from patent US20220242812A1

Target: SWELL1 protein (Mus musculus)

[
  {
    "molecule": "CCCCC1(C2CCCC2)Cc2cc(OCCCC(=O)O)c(Cl)c(Cl)c2C1=O (stereo not shown)",
    "EC50": "< 1 µM"
  }
]

###

Target: closed SWELL1-LRRC8 channel in HEK-293 cells (Homo sapiens, UniProt Q8IWT6)
Construct: endogenous in cells; host or cells: HEK-293 (ATCC CRL-1573)
Test: ICl,SWELL inhibition on application to the closed SWELL1-LRRC8 channel (30 min preincubation), HEK-293 cells
Assay type: cell-based
Settings: 1 μM, 30 minutes prior to hypotonic activation
property measured: Subsequent hypotonic SWELL1-LRRC8 activation

[
  {
    "compound": "CCCCC1(C2CCCC2)Cc2cc(OCC(=O)O)c(Cl)c(Cl)c2C1=O (stereo not shown)",
    "result": "inactive"
  },
  {
    "compound": "O=C(O)CCCOc1cc2c(c(Cl)c1Cl)C(=O)C(C1CCCC1)C2 (stereo not shown) [UIPC-III-083B]",
    "result": "inactive"
  }
]
